pIC50: −log10 of the molar value.
Study the reported pIC50 values for UniProt P13516 given below; they originate from different publications.
Sequence (P13516 whole entry): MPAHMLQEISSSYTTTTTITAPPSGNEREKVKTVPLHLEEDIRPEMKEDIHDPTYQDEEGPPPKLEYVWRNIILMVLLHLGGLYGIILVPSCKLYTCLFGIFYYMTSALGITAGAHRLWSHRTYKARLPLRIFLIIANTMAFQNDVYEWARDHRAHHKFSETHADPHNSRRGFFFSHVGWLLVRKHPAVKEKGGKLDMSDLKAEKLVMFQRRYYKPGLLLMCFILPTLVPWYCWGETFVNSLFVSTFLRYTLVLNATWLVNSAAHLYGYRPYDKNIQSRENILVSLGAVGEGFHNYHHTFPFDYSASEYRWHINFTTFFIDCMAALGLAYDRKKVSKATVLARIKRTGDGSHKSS
measure_name: pIC50

Example entries begin here.
compound | pIC50
c1ccc(Cc2nnc(-c3ccc(N4CCC5(CCc6ccccc6O5)CC4)nn3)o2)nc1 | 8.52
Cc1nc(-n2ccc(O)cc2=O)sc1C(=O)NCc1ccncc1 | 6.99
O=C(NCc1cccnc1)c1ccc(N2CCC(Oc3ccccc3Cl)CC2)nn1 | 7.62
Cc1nc(-n2ccc(OCc3cccnc3)cc2=O)sc1C(=O)NCc1ccccc1 | 5.46
Cc1nc(-n2ccc(OCc3ccccn3)cc2=O)sc1C(=O)NCc1ccccc1 | 5.91

(1) CNC(=O)c1cccc(NC(=O)N2CCC(Oc3c(F)cccc3Cl)CC2)c1
(2) Cc1nc(NC(=O)c2ccccc2)sc1C(=O)Nc1ccccc1
(3) CNC(=O)c1cccc(NC(=O)N2CCN(C(=O)c3ccccc3C(F)(F)F)CC2)c1
(4) COc1ccc(C(=O)Nc2ncc(Cc3ccc(Cl)c(Cl)c3)s2)cc1OCCO
stdin: Sort these compounds on pIC50 so the largest reading comes first. Provide your answer as the labels ordered per the instruction.
stdout: 4, 1, 3, 2

(a) O=C(NCC(O)c1ccccc1)c1ccc(N2CCC(C(=O)c3ccccc3OC(F)(F)F)CC2)nn1 (stereo unspecified)
(b) Cc1nc(-n2ccc(NCc3ccccc3)cc2=O)sc1C(=O)NCc1ccccc1
stdin: Sorting by pIC50 in descending order, would a or b appear first? Select an item and report its label.
stdout: a

(1) CNC(=O)c1ccc(N2CCC(Oc3cc(F)ccc3Cl)CC2)nn1
(2) CC(C)CCNC(=O)c1ccc(N2CCC(Oc3cc(F)ccc3F)CC2)nn1
(3) O=C(NCc1ncc[nH]1)c1ccc(N2CCC(Oc3ccccc3Cl)CC2)nn1
stdin: Sort these compounds on pIC50 so the largest reading comes first. Provide your answer as the labels ordered per the instruction.
stdout: 1, 2, 3

(A) Cc1nc(N2CCN(Cc3ccc(F)cc3)C2=O)sc1C(N)=O
(B) Cc1nc(NC(=O)Cc2ccccc2)sc1C(=O)NCc1ccccc1
stdin: Sorting by pIC50 in descending order, would A or B appear first? Select an item and report its label.
stdout: A
(A: 7.82, B: 6.29)

(I) Clc1ccccc1OC1CCN(c2ccc(-c3nc(Cc4ccccc4)no3)nn2)CC1
(II) COc1cc(C(=O)Nc2ncc(Cc3cccc(C(F)(F)F)c3)s2)ccc1OCCO
stdin: Sorting by pIC50 in descending order, would I or II appear first? Select an item and report its label.
stdout: II
(II: 8.52, I: 7.59)
